Origin of the recorded values: ChEMBL document CHEMBL3988442

molecular target: AMP-activated protein kinase, AMPK (Homo sapiens) (UniProt P54646+O43741+P54619+Q9UGJ0+Q9Y478+Q13131+Q9UGI9); test: AMP-dependent Kinase enzyme assay. An in vitro enzyme assay that detects ADP turnover that is directly proportional to AMPK activity. This uses naive AMPK that is activated during the assay with MK-8722; format: functional; design: scale not given: direction of the effect not stated beside the values; conditions: 30 µM
readout-label: Percent Effect (%)
Return type: number; implicit unit %.

As a guide, the following entries are already answered.
• Cc1nccn1CC1CCCN1S(=O)(=O)Cc1ccccc1F (centres undefined) = 1.28
• COc1c(CNCc2ccnc(N3CCCC3)c2)c(C)nn1C = -1.28
• Cn1cc(CN2CCc3onc(COc4cccnc4)c3C2)cn1 = 17.2
• O=C(CN1CCNCC1)N1CC[C@@H](c2ccc3ccccc3c2)[C@H](O)C1 = -4.87
• COc1ccc(C(C(=O)O)N2CCCN(C3CCCC3)CC2)cc1OC (centres undefined) = -2.66

Param item = O=C(NCc1cc[nH]n1)NCC(c1ccco1)N1CCCC1 (centres undefined) ; retrieve measured Percent Effect.
-2.2

Follow-up entry: COCc1nc2cc(NCc3ccncc3)ccc2o1
-108

Further, for Cc1nc(C)n(CC2CCCN(CCOc3cccc(C#N)c3)C2)n1 (centres undefined) ?
7.7

Similarly, Cc1ncc2c(n1)CN(Cc1nnc(-c3occc3C)o1)CC2 ?
-24.9

Now give it for Cn1ccnc1CN1CCCN(C(=O)c2ccc(Cl)o2)CC1 too.
-1.55

CC(=O)N1CCCN(C(=O)c2oc(Br)cc2C)CC1 ?
-1.11

Now give it for COc1ccc(Nc2nc3c(C)nn(C)c3c(=O)n2C)c(OC)c1 too.
-2.05

Consider next the compound Cc1noc(C(C)C)c1C(=O)N1CCCN(Cc2cscn2)CC1 in the same way.
-1.96

Follow-up entry: Cc1nc(N2CCCCC2)ncc1C(=O)N1CC(C)(C)[C@@](C)(O)C1
-4.56

Here is the next compound: CC(C)CN1CCCn2nc(CNC(=O)CCN)cc2C1
4.29

# iterate: COC(=O)CN1CC(c2nc(Cc3ccccc3)no2)C1
-3.81

Input c1cc2nccc(CC3CCCN(Cc4ncc[nH]4)CC3)c2cn1 (centres undefined)
4.64

Next compound up: CC(OCC1CC1)C(=O)N1CCCN(c2ncccc2C#N)CC1 (centres undefined)
-5.36

Entry to check: Cc1cccc(CN2CCc3c(nc(N4CCC(C)CC4)[nH]c3=O)C2)n1
14.3

And CS(=O)(=O)N1CCN(CC(O)COc2ccc(F)cc2)CC1 (centres undefined) ?
2.55

Now try CCc1nc2n(n1)CC(NCC(=O)Nc1ccc(Cl)cn1)CC2 (centres undefined) .
-6.65

Param item: CC(C)(C)OC(=O)CNC(=O)CCc1nnc(-c2ccsc2)o1
2.21

Try Cc1nccc([C@H]2C[C@@H]3CCN(S(=O)(=O)N(C)C)C[C@H]3O2)n1 next.
-3.13

Request: CCc1nc(C2CCCN2C(=O)CCc2ccc3c(c2)OCO3)no1 (centres undefined)
2.98

====

biological target: Tyrosyl-tRNA synthetase, putative (Trypanosoma cruzi (strain CL Brener)) (UniProt Q4DSP6); assay: Trypanosoma cruzi tyrosyl tRNA synthetase (TcYRS) _High Tyrosine SOP; assay type: functional; design: scale not given: in the data most compounds retested in dose-response had high values; conditions: 30 µM
Sequence (Q4DSP6 as listed by the source): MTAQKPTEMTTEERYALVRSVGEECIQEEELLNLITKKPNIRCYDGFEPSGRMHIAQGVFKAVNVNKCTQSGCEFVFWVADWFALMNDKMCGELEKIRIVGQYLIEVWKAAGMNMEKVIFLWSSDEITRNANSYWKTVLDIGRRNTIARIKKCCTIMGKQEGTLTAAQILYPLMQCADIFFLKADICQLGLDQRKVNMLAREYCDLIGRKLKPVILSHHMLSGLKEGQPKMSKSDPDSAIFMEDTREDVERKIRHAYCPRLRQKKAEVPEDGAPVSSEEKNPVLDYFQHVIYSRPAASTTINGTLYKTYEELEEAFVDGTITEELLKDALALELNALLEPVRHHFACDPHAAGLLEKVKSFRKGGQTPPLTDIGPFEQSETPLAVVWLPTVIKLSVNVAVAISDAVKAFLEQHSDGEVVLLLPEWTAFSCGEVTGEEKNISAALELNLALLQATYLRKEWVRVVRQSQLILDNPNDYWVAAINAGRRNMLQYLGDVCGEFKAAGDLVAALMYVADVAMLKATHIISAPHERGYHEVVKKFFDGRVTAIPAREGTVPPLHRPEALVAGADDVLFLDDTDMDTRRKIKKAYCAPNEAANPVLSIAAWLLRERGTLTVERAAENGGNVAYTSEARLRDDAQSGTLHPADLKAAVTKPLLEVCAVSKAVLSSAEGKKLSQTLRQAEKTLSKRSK
# Percent Effect per record follows
Respond with the bare value in %.

* COc1ccccc1CC(=O)NCCCN1CCCC1C(=O)N(C)C (configuration not stated) | 6.45
* CCN(CC)CCNC(=O)c1ccn(COc2cc(C)cc(C)c2)n1 | 6.35
* c1cnc2c(c1)cc(C1CCOCC1)n2CCN1CCOCC1 | 3.23
* Cc1ccc(N2CCCN(C(=O)C3(C#N)CCCCC3)CC2)nn1 | 5.39
* COC(=O)C1CCN(c2cncc(-n3nc(C)cc3C)n2)CC1 | 3.96

May I ask what Percent Effect has been recorded for Cn1ccnc1CNC(=O)N1CCCC(Cc2nccn2C)C1 (configuration not stated) ?
10.9

Now the molecule NC(=O)C1CCCN(Cc2c(-c3ccco3)[nH]c3ncccc23)C1 (configuration not stated)
7.53

Could you do the same for COCCCNC(=O)N1CCCC(c2nncn2C)C1 (configuration not stated) , please?
0.493

====

target: AMP-activated protein kinase, AMPK (Homo sapiens) (UniProt P54646+O43741+P54619+Q9UGJ0+Q9Y478+Q13131+Q9UGI9); assay: AMP-dependent Kinase enzyme assay. An in vitro enzyme assay that detects ADP turnover that is directly proportional to AMPK activity. This uses naive AMPK that is activated during the assay with MK-8722; type: functional; set-up: scale not given: direction of the effect not stated beside the values; conditions: 30 µM
readout-label: Percent Effect (%)
Use % as the unit, but write only the number.

These recorded examples may help you get a feel for the data.
• CCC1CCCCCN1C(=O)c1nnc2ccccc2c1N (centres undefined) = 3.98
• CCN1CCC2(CC1)CC(NC(=O)N(C)C)c1cc(C)ccc12 (centres undefined) = 4.2
• CCc1nc(CC(=O)Nc2cnn(CC3CCCO3)c2)cs1 (centres undefined) = -12.1
• CC(C)c1noc(CN2CCN(C(=O)c3ccccc3F)CC2)n1 = -4.45
• COc1ccc(-c2noc(CN3CCOCC3C)n2)cc1OC (centres undefined) = -11.1

Which Percent Effect value belongs to CN(Cc1ccco1)C[C@H]1OC[C@@H]2CCN(Cc3cccnc3)C[C@@H]21 ?
0.611

What about this compound? CC(O)CN1CCN(C(=O)c2cn(-c3ccccc3Cl)nn2)CC1 (centres undefined)
-3.04

Same lookup for Cn1nccc1C1CCN(CC(O)c2cccc(F)c2)CC1 (centres undefined) , please.
0.204

// next record CN(C)C(CNC(=O)c1cc2c([nH]c1=O)CCCC2=O)c1ccsc1 (centres undefined)
-3.65

Try the compound CC(C)COCC(NC(=O)c1ccccn1)c1ccco1 (centres undefined)
-1.56

====

Below, each entry is listed alongside its reported Percent Effect.
target: Chromo domain-containing protein 1 (Saccharomyces cerevisiae (strain ATCC 204508 / S288c) (Baker's yeast)) (UniProt P32657); assay: ScCHD-1 Enzyme Inhibition Assay; format: functional; design: scale not given: in the data most compounds retested in dose-response had high values; conditions: 30 µM
Sequence (P32657 whole entry, the tested form may be a part): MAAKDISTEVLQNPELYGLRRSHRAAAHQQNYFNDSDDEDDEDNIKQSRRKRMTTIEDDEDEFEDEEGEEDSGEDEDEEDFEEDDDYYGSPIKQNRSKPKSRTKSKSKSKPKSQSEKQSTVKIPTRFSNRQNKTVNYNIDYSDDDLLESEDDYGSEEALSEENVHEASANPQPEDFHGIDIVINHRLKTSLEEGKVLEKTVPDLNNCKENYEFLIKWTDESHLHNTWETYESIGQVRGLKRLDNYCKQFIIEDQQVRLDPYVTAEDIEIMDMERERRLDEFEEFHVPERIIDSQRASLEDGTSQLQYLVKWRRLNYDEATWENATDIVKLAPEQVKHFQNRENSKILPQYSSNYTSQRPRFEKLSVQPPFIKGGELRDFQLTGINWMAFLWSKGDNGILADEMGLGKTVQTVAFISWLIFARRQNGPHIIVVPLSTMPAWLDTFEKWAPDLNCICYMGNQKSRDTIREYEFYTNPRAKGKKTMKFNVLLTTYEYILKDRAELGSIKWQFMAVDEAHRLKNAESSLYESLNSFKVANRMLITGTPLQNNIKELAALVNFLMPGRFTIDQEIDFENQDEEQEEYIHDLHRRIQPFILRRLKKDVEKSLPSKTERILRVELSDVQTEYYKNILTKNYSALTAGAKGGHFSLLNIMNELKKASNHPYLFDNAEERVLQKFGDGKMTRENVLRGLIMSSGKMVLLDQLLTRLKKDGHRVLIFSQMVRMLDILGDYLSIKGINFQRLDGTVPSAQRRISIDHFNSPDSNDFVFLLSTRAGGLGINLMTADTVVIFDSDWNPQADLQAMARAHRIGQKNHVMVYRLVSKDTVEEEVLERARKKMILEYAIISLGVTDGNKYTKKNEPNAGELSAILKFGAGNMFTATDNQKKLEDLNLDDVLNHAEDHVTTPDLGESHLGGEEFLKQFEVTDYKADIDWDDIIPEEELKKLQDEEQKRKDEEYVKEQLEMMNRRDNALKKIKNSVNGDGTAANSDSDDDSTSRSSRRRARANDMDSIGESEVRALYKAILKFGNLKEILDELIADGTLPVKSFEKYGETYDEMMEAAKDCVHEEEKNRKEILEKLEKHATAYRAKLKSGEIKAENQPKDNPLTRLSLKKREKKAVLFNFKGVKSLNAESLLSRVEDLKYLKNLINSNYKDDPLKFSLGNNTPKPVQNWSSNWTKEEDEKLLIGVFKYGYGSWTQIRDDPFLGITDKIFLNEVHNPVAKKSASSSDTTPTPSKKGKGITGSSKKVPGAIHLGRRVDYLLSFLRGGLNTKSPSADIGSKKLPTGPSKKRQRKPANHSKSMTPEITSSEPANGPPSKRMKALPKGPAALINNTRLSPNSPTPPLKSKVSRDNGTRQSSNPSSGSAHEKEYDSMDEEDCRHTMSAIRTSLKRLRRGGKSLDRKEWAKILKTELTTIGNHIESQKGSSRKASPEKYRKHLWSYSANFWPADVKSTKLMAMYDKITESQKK
Your answer is read as %, so omit the unit and give the number.

Consider the worked cases shown below.
• Cc1nn(C)c(Cl)c1C(=O)NCC(c1ccsc1)N(C)C (centres undefined) = -6.9
• CCNc1cc2c(nn1)CCN(C(=O)Cc1noc3ccccc13)C2 = -4.69
• COc1cccc(F)c1C(=O)N1C[C@@H](CN(C)CCO)[C@@H](CO)C1 = -0.727
• CS(=O)(=O)Cc1cccc(C(=O)N2CCCC(n3cccn3)C2)c1 (centres undefined) = -5.08
• C[C@H]1C[C@@H]2CCN(C(=O)c3ccncn3)C[C@H]2O1 = -3.12
• Cn1cnc2c1CCN(CCCc1ccccc1)C2 = -10.6

Let us move to another entry and its Percent Effect.
What value of Percent Effect has been reported for the following compound? CC(C)c1n[nH]c(C(=O)Nc2ccnn2C(C)C)c1Br
-9.92

====

target: AMP-activated protein kinase, AMPK (Homo sapiens) (UniProt P54646+O43741+P54619+Q9UGJ0+Q9Y478+Q13131+Q9UGI9); test: AMP-dependent Kinase enzyme assay. An in vitro enzyme assay that detects ADP turnover that is directly proportional to AMPK activity. This uses naive AMPK that is activated during the assay with MK-8722; type: functional; set-up: scale not given: direction of the effect not stated beside the values; conditions: 30 µM
readout-label: Percent Effect (%)
Output spec: scalar in %, unitless text.

Below: 3 compounds and their reported Percent Effect.
• Cc1cc2c(=O)n3c(nc2s1)CCN(Cc1cnn(C)c1C)CC3 = 12.6
• CNC(=O)c1cc2c(nc1NCC1CC1)CCN(c1ccncn1)CC2 = 11.9
• Cn1cc(CCC(=O)N2C[C@H]3CC[C@@H]2CN(Cc2ccccc2)C3)cn1 = 9.13

Percent Effect for Cc1nc(CCC(=O)NC2CCC2)cc(C2CCNCC2)n1 ?
-4.67

What do we get for CC1CN(C)c2ccccc2CN1C(=O)c1ccc[nH]1 (stereo unspecified) ?
-8.65

What do you have for CCCS(=O)(=O)NC(C)C(=O)NCc1ccc(N2CCCC2)nc1 (stereo unspecified) ?
-27.4

====

target: Protein translocase subunit SecA (Escherichia coli (strain K12)); test: Assay to Identify E. coli SecA ATPase Inhibitors; assay type: functional; design: scale not given: direction of the effect not stated beside the values; conditions: 30 µM
Potency and affinity values are given separately.
readout-label: Percent Effect (%)
Express your answer in %, writing the number without its unit.

Completed entries (count: 2):
• CC(=O)Nc1nc(CN2CCCC2Cn2cncn2)cs1 (stereo unspecified) = -7.57
• COc1ncccc1CNC(=O)NCCNC(=O)c1ccco1 = -2.62

Recorded Percent Effect for CN(Cc1ccc(Cl)c(Cl)c1)C(=O)CNC(N)=O , please?
-3.49

Next compound: Cc1cc(C(=O)N2CCCCC2C)ccc1NCCCO (stereo unspecified)
-2.03

# repeat for Cn1cnnc1CNC(=O)Nc1cc(C(F)(F)F)c[nH]c1=O
-4.28

Entry Cc1nccn1C1CCCN(C(=O)COCC(F)(F)F)C1 (stereo unspecified) please
-0.686
